experimental setup: basic group
Record T whenever pKa is at 8 or higher; record F when lower.

COc1ccc(-c2cc3ccncc3[nH]2)c(OC)c1	T
CCCCOc1ccc(OCCCN2CCOCC2)cc1	F
COc1cc(CN)ccc1O	T
Cc1cccc2cccnc12	F
CC1NCCC[NH2+]1	F
CC(O)CNCCN (stereo unspecified)	T

###

experimental setup: basic group
Record Fulfilled whenever pKa is at 9 or higher; record Not fulfilled when lower.

C[Si](C)(C)CNc1ccccc1	Not fulfilled
C[Si](C)(C)CCN	Fulfilled
CC[NH2+]CCN	Not fulfilled
Cc1nc2cccc(N)c2n1C	Not fulfilled
CSc1ccccn1	Not fulfilled
CC1=CCCN1C	Fulfilled
CN(C)c1ccc(/C=N/c2ncc3nc[nH]c3n2)cc1	Not fulfilled
Cc1ccnc(/N=C/c2ccc([N+](=O)[O-])cc2)n1	Not fulfilled
Cc1nc(C(=O)[O-])ccc1O	Not fulfilled
O=[N+]([O-])c1cc(-c2ccccc2)nnc1NCCN1CCOCC1	Not fulfilled
CCc1cccnn1	Not fulfilled
CCCCCCCCCCCCCCN(CCO)CC(O)CC (stereo not drawn)	Not fulfilled
COc1ccc(CN)cc1	Fulfilled
COc1ccc(-c2cn3cccnc3n2)c(OC)c1	Not fulfilled
NCc1ccccc1	Fulfilled
Oc1ccc2cnncc2c1	Not fulfilled
NCc1ccc(S(N)(=O)=O)cc1	Not fulfilled
C[Si](C)(C)c1ccc(N)cc1	Not fulfilled
CC(N)c1ccccc1 (stereo not drawn)	Fulfilled
CCc1c(C)nnc(C)c1C	Not fulfilled
CC[n+]1ccc([O-])nc1[S-]	Not fulfilled
CC1CCCCC1=N (stereo not drawn)	Fulfilled
COC(=O)Nc1ncnc2nc[nH]c12	Not fulfilled
C=CCC(C)(CN(CC)CC)OC(=O)c1ccccc1 (stereo not drawn)	Not fulfilled

###

experimental setup: basic group
Quick reference for pKa among some compounds
reported property: pKa

CCc1ccnnc1C	4.03
CSc1nccc2ccccc12	3.93
Cc1ccc(NCCNc2ccc(C)cc2)cc1	4
CCCN1C=CC(=CC=C2C=CC(=O)C=C2)C=C1	8.5
Nc1ccc2cc3ccc(Cl)cc3nc2c1	7.26
Cc1cc(N)c2ccccc2n1	9.44
NC12CCC(C1)C2	9.3
CN1C2=CCCC1CCC2 (stereo unspecified)	8.8
Nc1ccncc1N	9.06
CCCN(CCC)Cc1ccccc1O	8.3
NNC(=O)c1ccc([NH3+])cc1	2.05
CCCN(CC)c1ccccc1	6.39
COC(=O)CCCc1c[nH]cn1	7.33
NCCNCCCO	9.67
COc1ncnc2nc[nH]c12	2.21
CC(=O)Nc1ccc(S(=O)(=O)Nc2nccc(C)n2)cc1	0.9
NNC(=O)c1ccc[nH+]c1	1.64
C[NH+]1CCn2c(nc3ccccc32)C1	2.55
Cc1ncnc2nccnc12	2.92
Nc1ccc(-c2ccc(N)cc2)cc1	4.96
[S-]c1nccc2ccccc12	10.8

###

experimental setup: basic group
reported property: pKa

O=C([O-])Cc1nc2ccccc2[nH]1	4.1
Cc1cccc(-n2nnnc2N)c1	1.08
CC(C)[C@H]1CC[C@H](C)C[C@@H]1N	10.6
NNC=O	2.81
CC(=O)c1ccc([O-])c(CN(C)C)c1	10
CCOc1ccc2nc(/C=C/c3ccccc3)cc(N)c2c1	9.5
c1ncc2c(n1)NCCN2	6.63
C[C@@H]1CCC[C@H](C)N1CC(C)(C)O	10.7
COc1cc(N)c(C#N)c(N)n1	4.17
CC[n+]1c([O-])ccnc1[S-]	8.65
Cc1cc(-c2ccccc2)nn2c(CN3CCOCC3)cnc12	6.01

###

experimental setup: basic group
Quick reference for pKa among some compounds
reported property: pKa

CCN(CC)Cc1cn2nc(-c3ccccc3)cc(C)c2n1	8.79
O=C(O)c1ccoc1	-0.59
COc1ccc(N)cc1Br	4.09
Cc1c(Cn2ccnc2)sc2cc(C(=O)[O-])ccc12	6.04
N#CC(C#N)=NNc1ccc(CCCl)cc1	-0.81
Nc1ccc(S(=O)(=O)Nc2ccc[nH+]c2)cc1	1.59
CCN(CC)CCCNc1c2ccccc2[nH+]c2ccccc12	8.53
Clc1cncc(Cl)c1	0.55

###

experimental setup: acidic group
Quick reference for pKa among some compounds
reported property: pKa

O=C(O)c1csc(Cl)c1	3.8
CCCCc1cc(Cl)cc(Cl)c1O	8.1
Cc1cccc(C(=O)O)c1I	2.92
CCOC(=O)c1ccccc1-n1nc(O)c(CC)c1C	12.4
Oc1cc2cccnc2c2cccnc12	8.5
COC(=O)CC(=O)c1cccnc1	8.98
Cc1ccc(OCC(=O)N[C@H]2C(=O)N3[C@H]2SC(C)(C)[C@H]3C(=O)O)cc1	2.8
CCCCCCP(=O)(O)CCCCCC	3.24
Cc1cc(C(F)(F)F)n[nH]1	12.3
O=C([O-])C[NH+](CCNS(=O)(=O)c1ccc(CCBr)cc1)CC(=O)[O-]	7.75

###

Quick reference for pKa among some compounds
experimental setup: acidic group
reported property: pKa

N#CC(C#N)=NNc1c(Cl)cccc1Cl	4.7
CCn1nnnc1CC(=O)O	2.85
NNC(=O)C1(F)C(F)(F)C(F)(F)C(F)(F)C(F)(F)C1(F)F	9.14
O=C(O)C(c1ccc(C2CCCCC2)cc1)C(O)c1ccccc1 (configuration not stated)	4.24
COC(=O)CC(=O)c1ccncc1	8.24
S=c1[nH]c2ccccc2[nH]1	10.2
C[n+]1ccccc1O	0.32
Oc1ccc2ccc3ccccc3c2c1	9.28
O=[N+]([O-])c1ccccc1[Se]O	10.5
CC(C)N(C(=S)S)C(C)C	4.3
CC(C[NH3+])C(=O)O (configuration not stated)	3.53
C[NH+](C)CCNC(=O)/C=N/O	8.17
O=c1cc(-c2ccccc2)oc2ccc(O)cc12	9.09
CC(=O)CC(=O)Nc1ccccc1	9.94
N#Cc1ccc(C(=O)O)cc1	3.53
S=C(S)NC1CCCCC1	2.95
[NH3+]Cc1nnn[nH]1	2.62
NNC(=O)C(F)(F)C1(F)OC(F)(F)C(F)(F)C1(F)F (configuration not stated)	8.26
CC(=O)N1C[C@@]2(C(C)C)OC(=O)C[C@H]2[C@@H]1C(=O)O	3.2
CCc1cc(Cl)c(OC)c(C(=O)NC[C@H]2CCC[NH+]2CC)c1O	6.91
Cc1ccc(S(=O)(=O)N[C@@H](CC(N)=O)C(=O)[O-])cc1	11.4
O=C(O)C(=O)/C=C/c1ccccc1	1.97
N#CCc1ccc(C#N)cc1[N+](=O)[O-]	11.4
O=C(O)COc1ccccc1	3.15
O=C(O)c1ccc(Oc2ccccc2)cc1	4.52
O=C(O)c1cccc(Br)c1	3.79
Cc1ncc(CO)c(C)c1O	9.98
CCCCCCCCCC[NH2+]CCC(=O)O	3.57
O=C(O)c1cc(Cl)co1	2.69
COCC(=O)O	3.53
O=C(Cc1cccnc1)c1ccccc1	13.7
COCC1=C(C(=O)O)CCC1	4.5
NC1=[NH+][C@H](C(=O)O)[C@@H]([C@H](O)C[NH3+])N1	2.4
Cc1c(O)n[nH]c1-c1ccccc1	7.6
NS(=O)(=O)c1cccc(Cl)c1	9.04
CC(C)=CCC1C(=O)C(C(=O)CC(C)C)C(=O)C(CC=C(C)C)(CC=C(C)C)C1=O (configuration not stated)	6.18
OCC[n+]1cc(Br)c2ccccc2c1	13.1
N#Cc1cccc(NS(=O)(=O)c2ccccc2)c1	7.15
O=C(O)c1ccc(-c2nnn[nH]2)cc1	3.63
O=C1Cc2cc(O)ccc21	7.24
N#CC(C#N)=NNc1ccc(OC(F)(F)F)cc1	6
C=CC(CC(C)(C)C)c1ccc2cccnc2c1O (configuration not stated)	9.8
CC(=O)OO	8.19
O=S(=O)(Cc1ccccc1)c1ncn[nH]1	6.23
COc1cc2ccc(=O)oc2cc1O	6.5
O=C([O-])/C=C/C(=O)CC(=O)CC(=O)[O-]	8.4
Cc1cc(Cc2cc(O)ccc2C)c(O)c([N+](=O)[O-])c1	7.93
C[S+](C)CC(=O)c1ccccc1	8.6
O=[N+]([O-])c1ccc(/C(=N\O)c2ccccc2)cc1	10.8
O=C1O[C@@H]([C@H](O)CO)C([O-])=C1O	11.6
Oc1cccc2c1-c1ccccc1-2	8.64
CCOC(=O)c1ccccc1-n1nc(O)cc1C	12.3

###

experimental setup: acidic group
reported property: pKa

Oc1ccc2cc(Cl)ccc2c1	9.31
COc1ccc(C(=S)Nc2ccccc2)cc1	11.3
[NH3+]c1ccccc1O[C@H]1O[C@@H](C(=O)O)[C@H](O)[C@@H](O)[C@@H]1O	3.3
COc1ccc(CC(C(C)=O)C(C)=O)cc1	10.6
Ic1nnn[nH]1	2.85
CC(=O)c1c(C)cc(C)cc1C	10.7
CC(=O)N(C)c1nnc(S(N)(=O)=O)s1	7.4
O=C([O-])[C@@H]1O[C@H](Oc2ccc3[nH+]ccc(O)c3c2)[C@@H](O)[C@H](O)[C@H]1O	3.7
O=C/C(O)=C/O	5.03
O=C(O)c1ncccn1	2.85
Brc1nnn[nH]1	2.13
Cc1cnnc2c(O)cccc12	8.34
S=C(Nc1ccc(Cl)c(Cl)c1)c1cccc(Br)c1	9.26
Oc1ccccc1Cl	8.4
O=S(=O)([O-])c1ccc(O)c2cn[nH]c12	7.6
O=[N+]([O-])c1ccccc1/C=N/O	10.1
Oc1cncc[nH+]1	-0.1

Hey, just so you know, these numbers are from the pKa sets of Baltruschat and Czodrowski (2020).
